Test system: Rattus norvegicus
test method notes: Anti-inflammatory activity in Rattus norvegicus Wistar (rat) assessed as inhibition of carrageenan-induced paw edema at 20 mg/kg, po pretreated 30 min before carrageenan challenge measured after 2 hr by plethysmometer
Type: functional
observation type: inhibition in vivo at 20 mg/kg (%)
Give a bare numeral; the unit % is implied.

Please provide the recorded inhibition in vivo at 20 mg/kg for O=C(O)Cc1ccccc1Nc1c(Cl)cccc1Cl [DICLOFENAC SODIUM] , tested on Rattus norvegicus.
95

Please provide the recorded inhibition in vivo at 20 mg/kg for NS(=O)(=O)c1ccc(-n2nc(-c3ccccc3)c3c(O)cc(O)nc32)cc1 , tested on Rattus norvegicus.
30

Please provide the recorded inhibition in vivo at 20 mg/kg for NS(=O)(=O)c1ccc(-n2nc(-c3ccccc3)c3c(C(F)(F)F)cc(C(F)(F)F)nc32)cc1 , tested on Rattus norvegicus.
55

Please provide the recorded inhibition in vivo at 20 mg/kg for Nc1cc(O)nc2c1c(-c1ccccc1)nn2-c1ccc(S(N)(=O)=O)cc1 , tested on Rattus norvegicus.
60

Please provide the recorded inhibition in vivo at 20 mg/kg for NS(=O)(=O)c1ccc(-n2nc(-c3ccccc3)c3c(-c4ccccc4)cc(C(F)(F)F)nc32)cc1 , tested on Rattus norvegicus.
40

Please provide the recorded inhibition in vivo at 20 mg/kg for NS(=O)(=O)c1ccc(-n2nc(-c3ccccc3)c3c(-c4cccs4)cc(C(F)(F)F)nc32)cc1 , tested on Rattus norvegicus.
54

Please provide the recorded inhibition in vivo at 20 mg/kg for Cc1cc(O)nc2c1c(-c1ccccc1)nn2-c1ccc(S(N)(=O)=O)cc1 , tested on Rattus norvegicus.
70

Please provide the recorded inhibition in vivo at 20 mg/kg for Cc1cc(C)c2c(-c3ccccc3)nn(-c3ccc(S(N)(=O)=O)cc3)c2n1 , tested on Rattus norvegicus.
35

Please provide the recorded inhibition in vivo at 20 mg/kg for Nc1cc(-c2ccccc2)nn1-c1ccc(S(N)(=O)=O)cc1 , tested on Rattus norvegicus.
44
